Measured On: UniProt:Q96RI1
Sequence (Q96RI1 whole entry): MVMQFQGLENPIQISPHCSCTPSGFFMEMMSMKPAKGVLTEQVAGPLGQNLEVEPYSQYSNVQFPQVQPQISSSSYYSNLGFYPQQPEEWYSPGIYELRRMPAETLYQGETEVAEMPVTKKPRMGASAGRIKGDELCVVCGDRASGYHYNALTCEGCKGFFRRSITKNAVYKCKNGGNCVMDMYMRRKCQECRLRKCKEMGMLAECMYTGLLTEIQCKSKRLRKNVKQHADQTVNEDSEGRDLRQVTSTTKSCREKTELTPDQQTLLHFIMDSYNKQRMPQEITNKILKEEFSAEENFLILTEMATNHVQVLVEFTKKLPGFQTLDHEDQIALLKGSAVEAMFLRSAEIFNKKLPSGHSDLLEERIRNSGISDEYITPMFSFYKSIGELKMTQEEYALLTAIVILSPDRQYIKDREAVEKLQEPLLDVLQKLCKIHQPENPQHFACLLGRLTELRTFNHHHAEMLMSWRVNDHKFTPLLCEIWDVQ
Test Description: Inhibition of GW4064-induced transactivation of FXR (unknown origin) expressed in HEK293T cells after 16 hrs by beta-lactamase reporter gene assay
Type: cell-based, HEK-293T
Recorded IC50 for the following compounds
Lab book: enter the figure in µM, no units written.

Cc1cccc(-n2ncc(C(=O)Nc3cccc(S(=O)(=O)N4CCOCC4)c3)c2C)c1 | 29.3
Cc1ccc(NC(=O)c2c(C)nn(-c3ccccc3)c2C)cc1S(=O)(=O)N1CCOCC1 | 11.8
O=C(Nc1cccc(S(=O)(=O)N2CCOCC2)c1)c1cn(-c2ccccc2)nc1-c1cccnc1 | 10.8
O=C(Nc1ccc(F)c(S(=O)(=O)N2CCOCC2)c1)c1cnn(-c2ccccc2)c1 | 9.4

Next item in the queue.
Lab note: need IC50 with UniProt:Q96RI1 for entry `Cc1ccc(NC(=O)c2cnn(-c3ccccc3)c2C(F)(F)F)cc1S(=O)(=O)N1CCOCC1` , please look it up.
11.8
